Test: Cytotoxicity in Artemia cysts assessed as mortality of nauplii at 5 ug/mL after 24 hrs relative to control
Assay type: organism-based
Conditions: in vivo

| compound | unit.of.measurement | mortality at 24 h, 5 ug/mL |
| --- | --- | --- |
| C=CCn1c(=O)c(C2C(C(=O)OC(C)C)=C(N)N(NC(=O)c3ccncc3)C3=C2C(=O)CC(C)(C)C3)cc2cc(C)ccc21 (stereo unspecified) | % | 0 |
| C=CCn1c(=O)c(C2C(C(=O)OCC)=C(N)N(NC(=O)c3ccncc3)C3=C2C(=O)CC(C)(C)C3)cc2cc(OC)ccc21 (stereo unspecified) | % | 10 |
| C=CCn1c(=O)c(C2C(C(=O)OC)=C(N)N(NC(=O)c3ccncc3)C3=C2C(=O)CCC3)cc2cc(OC)ccc21 (stereo unspecified) | % | 10 |
| C=CCn1c(=O)c(C2C(C(=O)OC(C)C)=C(N)N(NC(=O)c3ccncc3)C3=C2C(=O)CC(C)(C)C3)cc2cc(Cl)ccc21 (stereo unspecified) | % | 0 |
| C=CCn1c(=O)c(C2C(C(=O)OC)=C(N)N(NC(=O)c3ccncc3)C3=C2C(=O)CC(C)(C)C3)cc2cc(C)ccc21 (stereo unspecified) | % | 0 |
| C=CCn1c(=O)c(C2C(C(=O)OCC)=C(N)N(NC(=O)c3ccncc3)C3=C2C(=O)CC(C)(C)C3)cc2cc(C)ccc21 (stereo unspecified) | % | 0 |
